- Measurement target: USP28 (USP28-5(1-1077)-TEV-6*His; LifeSensors) (Homo sapiens, UniProt Q96RU2)
- Construct: construct USP28 (USP28-5(1-1077)-TEV-6*His; LifeSensors); TEV cleavage site (C); 6xHis (C); purchased LifeSensors
- Assay procedure: Ubiquitin-Rhodamine 110 Assay for USP28 Activity, Example A-1(b)
- Type: biochemical
- Protocol conditions: Ubiquitin-Rhodamine 110 assay, Example A-1(b)
- Description: Example A-1(b): Biochemical Assay: Ubiquitin-Rhodamine 110 Assay for USP28 Activity […] For assay formats Example A-1(a), A-1(b), and A-2, data were reported as percent inhibition compared with control wells based on the following equation: % inh=1−((FLU−AveLow)/(AveHigh−AveLow)) where FLU=measured Fluorescence, AveLow=average Fluorescence of no enzyme control (n=16), and AveHigh=average Fluorescence of DMSO control (n=16). […]
Readout name: USP28 A-1(b) IC50 range

Use the examples below as a reference point.
Compound | USP28 A-1(b) IC50 range
Cc1cnc2c(N)c(C(=O)N[C@@H]3COc4cc(N5CC6CCC(C5)N6)c(F)cc4C3)sc2n1 (single isomer, unassigned) | + (>2 μM)
Cc1ccc2c(N)c(C(=O)N[C@H]3COc4cc(N5CCC(C(=O)O)CC5)ccc4C3)sc2n1 | ++ (0.2-2 μM)
Cc1ccc2c(N)c(C(=O)N[C@H]3CCc4cc(N5CCN[C@H](CO)C5)ccc4C3)sc2n1 (single isomer, unassigned) | + (>2 μM)
Cc1nc2sc(C(=O)N[C@H]3COc4cc(N5CC6CCC(C5)N6)c(F)cc4C3)c(N)c2s1 | + (>2 μM)
COc1ccc2c(N)c(C(=O)N[C@H]3COc4cc(N5CCNCC5)cc(F)c4C3)sc2n1 | ++ (0.2-2 μM)

Then there is this compound:
Exam item: Fill in the recorded USP28 A-1(b) IC50 range for this compound, with USP28 (USP28-5(1-1077)-TEV-6*His; LifeSensors) (Homo sapiens, UniProt Q96RU2) as test system: O=C(N[C@H]1COc2cc(N3CCNCC3)ccc2C1)c1cnc2c(c1)CC[C@@H]2O
Marked response: + (>2 μM)

* * *

Consider the following molecules; for each one, report its pIC50.
- Measurement target: USP25 (USP25-His6, Boston Biochem E-546) (Homo sapiens)
- Construct: His6; purchased Boston Biochem E-546
- Sequence (Q9UHP3 whole entry): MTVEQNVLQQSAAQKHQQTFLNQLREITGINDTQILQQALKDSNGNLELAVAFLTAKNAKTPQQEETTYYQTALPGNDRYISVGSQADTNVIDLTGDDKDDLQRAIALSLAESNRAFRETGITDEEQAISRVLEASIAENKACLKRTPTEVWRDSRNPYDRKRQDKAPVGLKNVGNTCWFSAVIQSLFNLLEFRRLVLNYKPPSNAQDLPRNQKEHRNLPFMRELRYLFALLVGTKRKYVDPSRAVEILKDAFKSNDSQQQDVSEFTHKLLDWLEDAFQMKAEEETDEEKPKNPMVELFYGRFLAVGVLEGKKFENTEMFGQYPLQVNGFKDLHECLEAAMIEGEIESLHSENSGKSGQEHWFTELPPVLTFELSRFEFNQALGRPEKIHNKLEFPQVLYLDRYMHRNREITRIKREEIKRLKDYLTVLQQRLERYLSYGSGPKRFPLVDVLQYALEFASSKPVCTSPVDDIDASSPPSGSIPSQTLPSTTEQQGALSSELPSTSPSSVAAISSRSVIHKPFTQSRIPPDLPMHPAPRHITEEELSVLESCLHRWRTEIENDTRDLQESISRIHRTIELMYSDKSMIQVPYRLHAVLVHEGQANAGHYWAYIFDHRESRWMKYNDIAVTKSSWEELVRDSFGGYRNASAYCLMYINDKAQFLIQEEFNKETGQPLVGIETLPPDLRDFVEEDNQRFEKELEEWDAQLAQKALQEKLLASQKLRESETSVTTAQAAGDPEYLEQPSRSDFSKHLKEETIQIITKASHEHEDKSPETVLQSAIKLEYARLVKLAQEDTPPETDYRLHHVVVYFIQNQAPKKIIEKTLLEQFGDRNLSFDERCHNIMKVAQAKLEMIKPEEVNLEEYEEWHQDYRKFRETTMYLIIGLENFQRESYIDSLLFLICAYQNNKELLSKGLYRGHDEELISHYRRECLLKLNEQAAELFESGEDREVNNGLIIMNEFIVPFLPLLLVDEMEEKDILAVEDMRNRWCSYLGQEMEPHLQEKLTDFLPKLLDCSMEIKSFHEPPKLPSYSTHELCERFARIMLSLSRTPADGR
- Assay procedure: Ubiquitin-Rhodamine 110 Assay for USP25 Activity, Example A-2
- Type: biochemical
- Protocol conditions: Ubiquitin-Rhodamine 110 assay, Example A-2; read-out: USP25 A-2 IC50 range
pIC50: −log10 of the molar value.

Use the examples below as a reference point.
Molecule | Measurement target | pIC50
Cc1ccc2c(N)c(C(=O)N[C@H]3COc4cc(N5C[C@@H](N)CC56COC6)ccc4C3)sc2n1 (single isomer, unassigned) | USP25 (USP25-His6, Boston Biochem E-546) (Homo sapiens) | 6.70 to 7.30
CO[C@H]1CN(c2ccc3c(c2)CC[C@H](NC(=O)c2sc4nc(C)ccc4c2N)C3)C[C@@H]1N | USP25 (USP25-His6, Boston Biochem E-546) (Homo sapiens) | 5.70 to 6.70

Items follow; give pIC50 for each.
1. C[C@H](Nc1ccc(C(=O)N[C@H]2COc3cc(N4CCNCC4)ccc3C2)cn1)c1ccccc1
2. O=C(N[C@H]1COc2cc(N3CCNCC3)ccc2C1)c1ccc(NCc2ccc3c(c2)CCO3)nc1

Marked response:
1: < 5.70; 2: 5.70 to 6.70

* * *

Consider the following compounds; for each one, report its pIC50.
- Measurement target: USP28 (His-tagged USP28-FL-mammalian) (Homo sapiens, UniProt Q96RU2)
- Construct: Expression of USP28 (1-1077)-TEV-6*His (pTT5 vector); made in house; host or cells: Expi293f cells (pTT5 vector)
- Sequence (Q96RU2 1-1077): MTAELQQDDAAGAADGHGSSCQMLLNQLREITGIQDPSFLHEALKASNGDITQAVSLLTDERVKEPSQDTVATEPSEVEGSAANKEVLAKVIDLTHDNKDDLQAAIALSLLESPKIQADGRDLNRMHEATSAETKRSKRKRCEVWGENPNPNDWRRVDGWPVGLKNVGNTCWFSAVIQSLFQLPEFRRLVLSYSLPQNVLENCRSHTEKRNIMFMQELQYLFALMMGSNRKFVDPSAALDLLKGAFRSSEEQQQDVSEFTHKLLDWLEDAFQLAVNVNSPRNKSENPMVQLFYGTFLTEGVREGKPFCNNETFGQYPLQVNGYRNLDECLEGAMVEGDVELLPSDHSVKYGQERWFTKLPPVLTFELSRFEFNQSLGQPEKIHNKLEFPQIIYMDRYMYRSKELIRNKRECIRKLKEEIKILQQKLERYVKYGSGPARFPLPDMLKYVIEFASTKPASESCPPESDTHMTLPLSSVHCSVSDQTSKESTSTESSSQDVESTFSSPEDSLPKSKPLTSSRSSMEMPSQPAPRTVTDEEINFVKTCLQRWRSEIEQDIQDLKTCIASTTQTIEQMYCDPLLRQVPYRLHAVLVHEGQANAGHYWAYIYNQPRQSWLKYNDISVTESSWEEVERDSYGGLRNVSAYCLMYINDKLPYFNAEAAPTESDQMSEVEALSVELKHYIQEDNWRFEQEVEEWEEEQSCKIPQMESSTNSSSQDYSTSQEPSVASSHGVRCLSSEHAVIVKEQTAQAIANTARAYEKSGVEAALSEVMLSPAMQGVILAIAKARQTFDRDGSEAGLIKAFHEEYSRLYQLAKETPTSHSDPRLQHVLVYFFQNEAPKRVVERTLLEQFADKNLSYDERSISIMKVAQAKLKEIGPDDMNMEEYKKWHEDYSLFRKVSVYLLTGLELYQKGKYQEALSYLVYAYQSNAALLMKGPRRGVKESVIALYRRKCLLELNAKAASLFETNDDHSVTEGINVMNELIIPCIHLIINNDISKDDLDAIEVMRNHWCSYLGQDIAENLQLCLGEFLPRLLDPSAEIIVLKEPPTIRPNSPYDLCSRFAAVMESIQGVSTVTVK
- Assay procedure: Ubiquitin-Rhodamine 110 Assay for USP28 Activity, Example A-1(a)
- Assay type: biochemical
- Protocol conditions: Ubiquitin-Rhodamine 110 assay, Example A-1(a); read-out: USP28 A-1(a) IC50 range
pIC50: −log10 of the molar value.

Use the examples below as a reference point.
Compound | Result
COCCO[C@@H]1CN(c2ccc3c(n2)CC[C@H](NC(=O)c2sc4nc(C)ccc4c2N)C3)C[C@H]1N (single isomer, unassigned) | 5.70 to 6.70
COC[C@H]1CN(c2nc3c(cc2F)C[C@@H](NC(=O)c2sc4nc(C)ccc4c2N)CC3)C[C@H]1N | < 5.70

Items follow; give pIC50 for each.
1. CN[C@H]1CN(c2ccc3c(n2)CC[C@H](NC(=O)c2sc4nc(C)ccc4c2N)C3)C[C@@H]1C(F)F
2. O=C(N[C@H]1COc2cc(N3CC4CCC(C3)N4)ccc2C1)c1cnc2c(c1)CCCO2

Marked response:
["6.70 to 7.30", "5.70 to 6.70"]

* * *

- Measurement target: USP28 (His-tagged USP28-FL-mammalian) (Homo sapiens, UniProt Q96RU2)
- Construct: Expression of USP28 (1-1077)-TEV-6*His (pTT5 vector); made in house; host or cells: Expi293f cells (pTT5 vector)
- Assay procedure: Ubiquitin-Rhodamine 110 Assay for USP28 Activity, Example A-1(a)
- Assay type: biochemical
- Protocol conditions: Ubiquitin-Rhodamine 110 assay, Example A-1(a); read-out: USP28 A-1(a) IC50 range
pIC50: −log10 of the molar value.
Readout name: pIC50

Use the examples below as a reference point.
Compound | pIC50
Cc1ccc2c(N)c(C(=O)N[C@@H]3Cc4ccc(N5CCNCC5)nc4[C@@H](C)C3)sc2n1 (single isomer, unassigned) | 5.70 to 6.70
Cc1ccc2c(N)c(C(=O)N[C@H]3COc4cc(C5(C#N)CCS(=O)(=O)CC5)ccc4C3)sc2n1 | 7.30 to 9.00
O=C(N[C@H]1CCc2cc(N3CC4CCC(C3)N4)cc(F)c2C1)c1cnc2c(c1)[C@@H]1C[C@@H]1CN2 | < 5.70
CO[C@H]1CN(c2nc3c(cc2F)C[C@@H](NC(=O)c2sc4nc(C)ccc4c2N)CC3)C[C@@H]1N | 6.70 to 7.30
Cc1ccc2c(N)c(C(=O)N(C)[C@H]3COc4cc(N5CCNCC5)cc(F)c4C3)sc2n1 | < 5.70

Items follow; give pIC50 for each.
1. Cc1ccc2c(N)c(C(=O)N[C@@H]3COc4cc(N5C[C@H]6CNC[C@@H]6C5)ccc4C3)sc2n1
2. Cc1ccc2c(N)c(C(=O)N[C@@H]3CCc4cc(N5CCNCC5)c(F)c(F)c4C3)sc2n1
3. Cc1ccc2c(N)c(C(=O)N[C@@H]3COc4cc(N5CCNCC5)cc(F)c4C3)sc2n1
4. Cc1ccc2c(N)c(C(=O)N[C@H]3CCc4cc(N5C[C@@H](CF)[C@@H](N)C5)ccc4C3)sc2n1
5. Cc1ccc2c(N)c(C(=O)N[C@H]3CCc4nc(N5C[C@@H](N)[C@H](C(F)F)C5)ncc4C3)sc2n1

Marked response:
1. < 5.70
2. 6.70 to 7.30
3. 5.70 to 6.70
4. 7.30 to 9.00
5. 5.70 to 6.70
